Value source: patent US11440915B2

- experimentalSystem: γ-secretase (Homo sapiens (Human), UniProt P49768)
- method: Cellular γ-secretase assay (inhibition of Aβ42 secretion, AlphaLisa)
- experimentalParameters: human neuroglioma H4 cells overexpressing human APP695 Swedish double mutation, 24 hr compound incubation
- Method: Human neuroglioma H4 cells overexpressing human APP695 with the Swedish double mutation (K595N/M596L) were plated at 30,000 cells/well/100 μl in 96-well plates in IMDM media containing 10% FCS, 0.2 mg/l Hygromycin B and incubated at 37° C., 5% CO2. […] After incubation at 37° C., 5% CO2, the supernatant was subjected to quantification of secreted Aβ42 by the means of an AlphaLisa assay kit (Human Amyloid beta 1-42 Kit: Cat #AL203C, Perkin Elmer). […]
measurementLabel: EC50 (nM)

Cc1cn(C23CC(Nc4nc5n(n4)CCCC[C@@H]5c4ccc(F)cc4)(C2)C3)cn1
25

I. Cc1cn(C23CC(Nc4nc5n(n4)CCCC[C@H]5c4ccc(F)c(F)c4)(C2)C3)cn1
II. Cc1cn(C23CC(Nc4nc5n(n4)CCCC[C@@H]5c4cccc(Cl)c4)(C2)C3)cn1
Q: Name the one with the greater EC50 value, either I or II as given. State your choice using its label.
Result: I

* * *

- experimentalSystem: γ-secretase (Homo sapiens (Human), UniProt P49768)
- method: Cellular γ-secretase assay (inhibition of Aβ42 secretion, AlphaLisa)
- experimentalParameters: human neuroglioma H4 cells overexpressing human APP695 Swedish double mutation, 24 hr compound incubation
measurementLabel: EC50 (nM)

// below: answered compounds
Cc1cn(C23CCC(Nc4nc5n(n4)CCCC[C@H]5c4ccc(F)c(F)c4)(CC2)CC3)cn1
49
Cc1cn(C23CC(Nc4nc5n(n4)CCCC[C@@H]5c4ccccc4F)(C2)C3)cn1
38
Cc1cn(C23CCC(Nc4nc5n(n4)CCCC[C@H]5c4ccc(F)c(F)c4F)(CC2)CC3)cn1
27

a. Cc1cn(C23CC(Nc4nc5n(n4)CCCC[C@@H]5c4ccc(F)c(F)c4)(C2)C3)cn1
b. Cc1cn(C23CC(Nc4nc5n(n4)CCCC[C@H]5c4cc(F)cc(Cl)c4)(C2)C3)cn1
c. Cc1cn(C23CC(Nc4nc5n(n4)CCCC[C@H]5c4ccc(Cl)cc4)(C2)C3)cn1
d. Cc1cn(C23CC(Nc4nc5n(n4)CCCC[C@@H]5c4cc(F)cc(Cl)c4)(C2)C3)cn1
Q: Order the items by recorded EC50; the first position goes to the largest value. Submit the labels in the order that the ranking request calls for.
Result: a, c, b, d
(a: 44 nM, c: 23 nM, b: 14 nM, d: 8 nM)

* * *

- experimentalSystem: γ-secretase (Homo sapiens (Human))
- method: Cellular γ-secretase assay (inhibition of Aβ42 secretion, AlphaLisa)
- experimentalParameters: human neuroglioma H4 cells overexpressing human APP695 Swedish double mutation, 24 hr compound incubation
pEC50: −log10 of the molar value.
measurementLabel: pEC50

// below: answered compounds
Cc1cn(C23CC(Nc4nc5n(n4)CCCC[C@@H]5c4ccc(Cl)cc4)(C2)C3)cn1
7.59
Cc1cn(C23CCC(Nc4nc5n(n4)CCCC[C@@H]5c4ccc(F)c(F)c4F)(CC2)CC3)cn1
7.37
Cc1cn(C23CCC(Nc4nc5n(n4)CCCC[C@@H]5c4ccc(F)c(F)c4)(CC2)CC3)cn1
7.41
Cc1cn(C23CC(Nc4nc5n(n4)CCCC[C@@H]5c4ccc(F)c(F)c4F)(C2)C3)cn1
7.85
Cc1cn(C23CCC(Nc4nc5n(n4)CCCC[C@H]5c4cc(F)cc(Cl)c4)(CC2)CC3)cn1
7.85

a. Cc1cn(C23CC(Nc4nc5n(n4)CCCC[C@H]5c4ccc(F)cc4)(C2)C3)cn1
b. Cc1cn(C23CC(Nc4nc5n(n4)CCCC[C@H]5c4ccc(F)c(F)c4F)(C2)C3)cn1
c. Cc1cn(C23CC(Nc4nc5n(n4)CCCC[C@H]5c4cccc(Cl)c4)(C2)C3)cn1
d. Cc1cn(C23CCC(Nc4nc5n(n4)CCCC[C@@H]5c4ccccc4F)(CC2)CC3)cn1
Q: Order the items by recorded pEC50; the first position goes to the largest value. Submit the labels in the order that the ranking request calls for.
Result: b, c, a, d
